# System: Brain
# experimental details: Drug level in transgenic rat brain at 0.12 mg/kg, iv
# Assay type: ADME, organism-based
# Design: dose 0.12 mg/kg, route intravenous
# test conditions: in vivo
observable: concentration (nM)
Give bare numbers, in nM.

Record O=C(Nc1ccc(S(=O)(=O)Nc2ccccc2C(=O)c2ccccc2)cc1)OCC1CCCO1 (stereo unspecified) : what is its concentration with Brain? 70

The reported measurements were obtained from ChEMBL document CHEMBL1157535.
